Below: a set of entries, each annotated with reported viability at 25 µM.
# System: HepG2
# ASSAY PROCEDURE: Anticancer activity against human HepG2 cells assessed as viable cells after 48 hrs at 25 uM by SRB assay relative to control
# Format: functional
# DETAILS: HepG2, 48 h, read-out: Activity
Value expressed in %; do not type the unit.

{"COMPOUND": "Nc1nc(=O)[nH]c2c1c(-c1ccccc1)cn2-c1ccc(S(=O)(=O)Nc2nccs2)cc1", "UNIT ABBREV": "%", "viability at 25 µM": 63.9}

input: Which viability at 25 µM is reported for this molecule? N#Cc1c(-c2ccccc2)cn(-c2ccc(S(=O)(=O)Nc3nccs3)cc2)c1NC(=O)CCC(=O)O
output: 36

input: One more molecule: CC(=O)Nc1c(C#N)c(-c2ccccc2)cn1-c1ccc(S(=O)(=O)Nc2ccccn2)cc1
output: 62.7

input: One more molecule: N#Cc1c(-c2ccccc2)cn(-c2ccc(S(=O)(=O)Nc3ccccn3)cc2)c1NC(=O)CCC(=O)O
output: 72

====

# Test system: HepG2
# ASSAY PROCEDURE: Cytotoxicity against human HepG2 cells assessed as inhibition of cell proliferation after 24 hrs by SRB assay
# Format: functional, cell-based
# DETAILS: HepG2, 24 h
Hi! Just check whether IC50 is below 4 µM. Below gives met, equal or above gives not met.

A selection of reference data follows.
{"COMPOUND": "N#Cc1c(-c2ccccc2)cn(-c2ccc(S(=O)(=O)Nc3ccccn3)cc2)c1NC(=O)CCC(=O)O", "CLASS ASSIGNMENT": "met"}
{"COMPOUND": "O=c1[nH]cnc2c1c(-c1ccccc1)cn2-c1ccc(S(=O)(=O)Nc2ccccn2)cc1", "CLASS ASSIGNMENT": "not met"}
{"COMPOUND": "N#Cc1c(-c2ccccc2)cn(-c2ccc(S(=O)(=O)Nc3nccs3)cc2)c1NC(=O)CCC(=O)O", "CLASS ASSIGNMENT": "met"}
{"COMPOUND": "Nc1nc(=O)[nH]c2c1c(-c1ccccc1)cn2-c1ccc(S(=O)(=O)Nc2ccccn2)cc1", "CLASS ASSIGNMENT": "not met"}
{"COMPOUND": "Cc1nc2c(c(-c3ccccc3)cn2-c2ccc(S(=O)(=O)Nc3nccs3)cc2)c(=O)[nH]1", "CLASS ASSIGNMENT": "met"}
{"COMPOUND": "N#Cc1c(-c2ccccc2)cn(-c2ccc(S(=O)(=O)Nc3ccccn3)cc2)c1N", "CLASS ASSIGNMENT": "not met"}

input: Just wondering, is IC50 of N#Cc1c(-c2ccccc2)cn(-c2ccc(S(=O)(=O)Nc3nccs3)cc2)c1N below 4 µM?
output: not met

input: One more compound: O=C(CNc1ccc(S(=O)(=O)Nc2ccccn2)cc1)c1ccccc1
output: not met

input: One more compound: Nc1nc(=S)[nH]c2c1c(-c1ccccc1)cn2-c1ccc(S(=O)(=O)Nc2nccs2)cc1
output: not met

input: One more compound: N#Cc1c(-c2ccccc2)cn(-c2ccc(S(=O)(=O)Nc3nccs3)cc2)c1N1C(=O)CCC1=O
output: not met

input: One more compound: Nc1nc(=O)[nH]c2c1c(-c1ccccc1)cn2-c1ccc(S(=O)(=O)Nc2nccs2)cc1
output: met

input: One more compound: Nc1ncnc2c1c(-c1ccccc1)cn2-c1ccc(S(=O)(=O)Nc2nccs2)cc1
output: not met

input: One more compound: CC(=O)Nc1c(C#N)c(-c2ccccc2)cn1-c1ccc(S(=O)(=O)Nc2ccccn2)cc1
output: met

input: One more compound: N#Cc1c(-c2ccccc2)cn(-c2ccc(S(=O)(=O)Nc3ccccn3)cc2)c1NC(N)=O
output: not met

input: One more compound: N#Cc1c(-c2ccccc2)cn(-c2ccc(S(=O)(=O)Nc3ccccn3)cc2)c1N1C(=O)CCC1=O
output: not met

input: One more compound: O=c1[nH]cnc2c1c(-c1ccccc1)cn2-c1ccc(S(=O)(=O)Nc2nccs2)cc1
output: not met

input: One more compound: O=C(CNc1ccc(S(=O)(=O)Nc2nccs2)cc1)c1ccccc1
output: not met

input: One more compound: COc1cccc2c1C(=O)c1c(O)c3c(c(O)c1C2=O)C[C@@](O)(C(=O)CO)C[C@@H]3O[C@H]1C[C@H](N)[C@H](O)[C@H](C)O1
output: not met

input: One more compound: Cc1nc2c(c(-c3ccccc3)cn2-c2ccc(S(=O)(=O)Nc3ccccn3)cc2)c(=O)[nH]1
output: met
